Just for reference, ChEMBL document CHEMBL1127900 is where these values come from.

ASSAY TARGET: 3-oxo-5-alpha-steroid 4-dehydrogenase 1 (Homo sapiens)
ASSAY SUMMARY: In vitro inhibition of recombinant human Steroid 5-alpha-reductase type I
TEST SETTINGS: read-out: Ki app
Field: label. Allowed values: criterion met (Ki < 10 nM) or criterion not met (Ki >= 10 nM).

Observe how each entry below is paired with its result.
>>> group_label("CN1C(=O)CCC2=C1CCc1cc(Cl)ccc12")
"criterion not met"
>>> group_label("CN1C(=O)CC[C@@H]2c3ccc(Cl)cc3CC[C@H]21 (stereo in doubt; (-)) [BEXLOSTERIDE]")
"criterion met"
>>> group_label("CN1C(=O)CC[C@]2(C)c3ccc(Cl)cc3CC[C@H]12 (stereo in doubt; (+)-4)")
"criterion not met"

Ask | A record lists CN1C(=O)CC[C@@H]2c3ccc(Cl)cc3CC[C@@H]21 (stereo in doubt; (+)-3) . Is its Ki below 10 nM?
Reply | criterion not met

Ask | Can you handle CN1C(=O)CC[C@@H]2c3ccc(Cl)cc3CC[C@H]21 (stereo in doubt; (+)) [BEXLOSTERIDE] next?
Reply | criterion met

Ask | What do you get for CN1C(=O)CC[C@@H]2c3ccc(Cl)cc3CC[C@@H]21 (stereo in doubt; (-)-3) ?
Reply | criterion not met

====

ASSAY TARGET: 3-oxo-5-alpha-steroid 4-dehydrogenase 2 (Homo sapiens)
Sequence (P31213 whole entry): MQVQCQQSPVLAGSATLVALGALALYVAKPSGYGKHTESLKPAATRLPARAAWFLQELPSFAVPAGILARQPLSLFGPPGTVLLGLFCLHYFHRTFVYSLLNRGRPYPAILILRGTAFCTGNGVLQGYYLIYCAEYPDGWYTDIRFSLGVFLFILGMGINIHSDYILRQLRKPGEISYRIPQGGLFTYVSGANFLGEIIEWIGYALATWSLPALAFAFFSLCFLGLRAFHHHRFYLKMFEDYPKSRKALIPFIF
ASSAY SUMMARY: In vitro inhibition of recombinant human Steroid 5-alpha-reductase type 2
TEST SETTINGS: read-out: Ki app
MEASUREMENT TYPE: Ki

Please review the following examples before continuing.
>>> value_reported("CN1C(=O)CC[C@]2(C)c3ccc(Cl)cc3CC[C@@H]12 (stereo in doubt; (-))")
"> 1 µM"
>>> value_reported("CN1C(=O)CC[C@]2(C)c3ccc(Cl)cc3CC[C@H]12 (stereo in doubt; (-)-4)")
"> 2.5 µM"
>>> value_reported("CN1C(=O)CC[C@]2(C)c3ccc(Cl)cc3CC[C@H]12 (stereo in doubt; (+)-4)")
"> 2.5 µM"

Attention now turns to another entry.
Ask | I have this molecule here, CN1C(=O)CC[C@]2(C)c3ccc(Cl)cc3CC[C@@H]12 (stereo in doubt; (+)) , and I need its recorded Ki.
Reply | > 1 µM

====

# key: entry, value: pKi
ASSAY TARGET: 3-oxo-5-alpha-steroid 4-dehydrogenase 1 (Homo sapiens, UniProt P18405)
Sequence (P18405 whole entry): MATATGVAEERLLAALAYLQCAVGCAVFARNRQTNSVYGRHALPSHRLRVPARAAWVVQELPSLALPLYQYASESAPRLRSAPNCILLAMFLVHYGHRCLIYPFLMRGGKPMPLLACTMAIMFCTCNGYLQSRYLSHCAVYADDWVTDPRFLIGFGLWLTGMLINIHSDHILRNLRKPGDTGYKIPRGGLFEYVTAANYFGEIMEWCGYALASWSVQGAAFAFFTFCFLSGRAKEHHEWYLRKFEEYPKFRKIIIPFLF
ASSAY SUMMARY: In vitro inhibition of recombinant human Steroid 5-alpha-reductase type I
TEST SETTINGS: read-out: Ki app
// pKi: -log10(molar conc.)

Recorded pKi, per entry:
>>> value_reported("CN1C(=O)CC[C@]2(C)c3ccc(Cl)cc3CC[C@@H]12 (stereo in doubt; (+))")
8.05
>>> value_reported("CN1C(=O)CC[C@]2(C)c3ccc(Cl)cc3CC[C@@H]12 (stereo in doubt; (-))")
8.00
>>> value_reported("CN1C(=O)CC[C@@]2(C)C1=CCc1cc(Cl)ccc12 (racemic)")
6.74

Moving on to another molecule below.
Ask | // query pKi value for entry CN1C(=O)CC[C@]2(C)c3ccc(Cl)cc3CC[C@H]12 (stereo in doubt; (-)-4)
Reply | 5.15
